- Test system: collagenase
- protocol-text: Inhibition of collagenase expression in human fibroblasts
- Format: cell-based
- measurement-context: molar concentration of 10^−4, 24 hours, compared to 100 of the non-treatment group
property: Expression of collagenase (%)
Give the value in % but do not write % after it.

Consider the following illustrative entries.
Which value of Expression of collagenase (%) has been reported for COc1ccc(-c2oc3c(CC=C(C)C)c(O)cc(O)c3c(=O)c2O[C@@H]2O[C@H](C)[C@@H](O)[C@H](O)[C@@H]2O)cc1 [Icariside II] in the records? 66

Same read-out for "COc1ccc(-c2oc3c(CC=C(C)C)c(O)cc(O)c3c(=O)c2O)cc1" ? 66

Same read-out for "COc1ccc(-c2oc3c(CC=C(C)C)c(O[C@@H]4O[C@H](CO)[C@@H](O)[C@H](O)[C@H]4O)cc(O)c3c(=O)c2O[C@@H]2O[C@@H](C)[C@H](O)[C@@H](O)[C@H]2O)cc1" ? 81

Same read-out for O=C(O[C@@H]1Cc2c(O)cc(O)cc2O[C@@H]1c1cc(O)c(O)c(O)c1)c1cc(O)c(O)c(O)c1 [EGCG, reference compound] ? 60

New cases:
Which value of Expression of collagenase (%) has been reported for COc1ccc(-c2oc3c(CC=C(C)C)c(O[C@@H]4O[C@H](CO)[C@@H](O)[C@H](O)[C@H]4O)cc(O)c3c(=O)c2O)cc1 [Icariside I] in the records? 64

* * *

- Test system: pigment cells (Mel-Ab cell)
- protocol-text: Inhibition of melanin synthesis using pigment cell of mouse
- Assay type: cell-based
- measurement-context: 10 ppm for continuous 3 days, non-treatment group given as 100.0
Below: a set of entries, each annotated with reported Melanin content (% of untreated control).
Remember to put the unit after the number in your answer.

Which value of Melanin content (% of untreated control) has been reported for Oc1ccc(O)cc1 [Hydroquinone, hydroquinone, reference compound] in the records? 41.1%

Same read-out for COc1ccc(-c2oc3c(CC=C(C)C)c(O)cc(O)c3c(=O)c2O[C@@H]2O[C@H](C)[C@@H](O)[C@H](O)[C@@H]2O)cc1 [Icariside II] ? 38.2%

Same read-out for "COc1ccc(-c2oc3c(CC=C(C)C)c(O[C@@H]4O[C@H](CO)[C@@H](O)[C@H](O)[C@H]4O)cc(O)c3c(=O)c2O[C@@H]2O[C@@H](C)[C@H](O)[C@@H](O)[C@H]2O)cc1" ? 84.5%

Same read-out for "COc1ccc(-c2oc3c(CC=C(C)C)c(O)cc(O)c3c(=O)c2O)cc1" ? 39.5%

Attention now turns to another entry.
Which value of Melanin content (% of untreated control) has been reported for COc1ccc(-c2oc3c(CC=C(C)C)c(O[C@@H]4O[C@H](CO)[C@@H](O)[C@H](O)[C@H]4O)cc(O)c3c(=O)c2O)cc1 [Icariside I] in the records? 38.6%

* * *

- System: elastase
- protocol-text: Inhibition of elastase expression in human fibroblasts
- Assay type: cell-based
- measurement-context: molar concentration of 10^−4, 24 hours, compared to 100 of the non-treatment group
Binarize Expression of elastase (%) at 60%; below is Yes, at or above is No.

Lab note: confirm whether the reported Expression of elastase (%) for this molecule is below 60%, equality not counting. molecule: COc1ccc(-c2oc3c(CC=C(C)C)c(O)cc(O)c3c(=O)c2O[C@@H]2O[C@H](C)[C@@H](O)[C@H](O)[C@@H]2O)cc1 [Icariside II] No

Same read-out for COc1ccc(-c2oc3c(CC=C(C)C)c(O[C@@H]4O[C@H](CO)[C@@H](O)[C@H](O)[C@H]4O)cc(O)c3c(=O)c2O)cc1 [Icariside I] ? Yes

Same read-out for "COc1ccc(-c2oc3c(CC=C(C)C)c(O)cc(O)c3c(=O)c2O)cc1" ? Yes

Same read-out for "COc1ccc(-c2oc3c(CC=C(C)C)c(O[C@@H]4O[C@H](CO)[C@@H](O)[C@H](O)[C@H]4O)cc(O)c3c(=O)c2O[C@@H]2O[C@@H](C)[C@H](O)[C@@H](O)[C@H]2O)cc1" ? No

Kindly review the next molecule as well.
Lab note: confirm whether the reported Expression of elastase (%) for this molecule is below 60%, equality not counting. molecule: O=C(O[C@@H]1Cc2c(O)cc(O)cc2O[C@@H]1c1cc(O)c(O)c(O)c1)c1cc(O)c(O)c(O)c1 [EGCG, reference compound] No
